target-or-test-system: fibrinogen fragment D (Homo sapiens, UniProt P02675+P02679)
Construct: Fibrinogen fragment D, comprising the C-terminal polymerization pockets of fibrinogen (i.e. D-domain) without the N-terminal knobs; purchased Enzyme Research Laboratories FIB3
Sequence (P02679 89-432 limits assumed): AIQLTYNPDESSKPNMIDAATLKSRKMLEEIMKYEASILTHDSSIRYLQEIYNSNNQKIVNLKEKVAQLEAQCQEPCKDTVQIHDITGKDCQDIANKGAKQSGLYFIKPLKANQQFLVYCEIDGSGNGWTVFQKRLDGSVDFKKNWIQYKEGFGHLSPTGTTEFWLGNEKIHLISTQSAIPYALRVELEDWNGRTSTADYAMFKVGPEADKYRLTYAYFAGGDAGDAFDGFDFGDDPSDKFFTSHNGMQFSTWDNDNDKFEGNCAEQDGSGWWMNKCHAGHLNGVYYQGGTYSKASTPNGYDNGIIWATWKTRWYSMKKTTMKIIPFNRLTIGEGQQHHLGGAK
Sequence (P02675 164-491 limits assumed): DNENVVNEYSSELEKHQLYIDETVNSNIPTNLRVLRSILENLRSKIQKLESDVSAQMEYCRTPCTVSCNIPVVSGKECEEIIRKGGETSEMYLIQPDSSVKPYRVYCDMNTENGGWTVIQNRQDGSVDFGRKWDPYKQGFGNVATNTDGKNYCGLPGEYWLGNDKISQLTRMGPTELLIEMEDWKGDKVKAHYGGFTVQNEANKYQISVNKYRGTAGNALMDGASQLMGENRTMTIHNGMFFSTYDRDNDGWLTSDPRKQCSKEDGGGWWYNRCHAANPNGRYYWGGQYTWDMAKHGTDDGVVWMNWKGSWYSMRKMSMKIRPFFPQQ
Sequence (P02671 124-216 partner limits assumed): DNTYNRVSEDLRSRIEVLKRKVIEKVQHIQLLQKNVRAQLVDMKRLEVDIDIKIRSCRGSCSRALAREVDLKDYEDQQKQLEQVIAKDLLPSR
method-description: SPR binding kinetics of knob 'A' peptides on immobilized fibrinogen fragment D
condition-info: Langmuir 1:1 model; read-out: kd, dissociation rate
Where a SMILES comes first, the peptide text is derived from it.
recorded-endpoint: koff (s⁻¹)

# molecule, koff / s⁻¹
measured = [
    ("C[C@H](NC(=O)[C@H](C)NC(=O)[C@@H]1CCCN1C(=O)[C@H](CCCNC(=N)N)NC(=O)[C@@H]1CCCN1C(=O)CN)C(=O)N[C@@H](CS)C(=O)O [GPRPAAC] (H-GPRPAAC-OH)", 0.0117),
    ("N=C(N)NCCC[C@H](NC(=O)[C@H](CCC(=O)O)NC(=O)[C@@H]1CCCN1C(=O)[C@@H]1CCCN1C(=O)[C@H](CCCNC(=N)N)NC(=O)[C@@H]1CCCN1C(=O)CN)C(=O)N[C@@H](CS)C(=O)O [GPRPPERC] (H-GPRPPERC-OH)", 0.00992),
]

The origin of these recorded values is patent US8513380B2.
